# Assayed System: ACTL6A
# Protocol Details: pooled miR-30 sensor sort-seq; sequence = guide strand
# Details: shRNA
Quantity: sensor-assay potency score (higher = more potent)
// response body must contain only the number

Prompt: Quick check: sensor-assay potency score (higher = more potent) of `TAGTGTTCAAACATTAACTCTG` ?
Response: 0.293

Prompt: What would you report for `TTTGCAATCAATTTCAACCGCA` ?
Response: 0.585

Prompt: What would you report for `TAGTAATAAAGTCTCCAGCAAG` ?
Response: -1.21

Continuing:
Prompt: Quick check: sensor-assay potency score (higher = more potent) of `TTGAAGGACATAGCCATCGTGG` ?
Response: -0.822

Prompt: What would you report for `TCCTTCTTCATATTCTTGCTTG` ?
Response: -0.909

Prompt: What would you report for `TTGTGGTGACAACATGACTGAC` ?
Response: -0.897

Prompt: What would you report for `TTGAATCTGACACTTGAAGTAC` ?
Response: -0.0659

Prompt: What would you report for `TTTGCTCTAGTATTCCACGGTG` ?
Response: -0.0557

###

# Assayed System: SKI
# Protocol Details: pooled miR-30 sensor sort-seq; sequence = guide strand
# Details: shRNA
Quantity: sensor-assay potency score (higher = more potent)
// response body must contain only the number

Prompt: Enter reported sensor-assay potency score (higher = more potent) observed with SKI for `TACGGTCTCGCAGCGCTCGGTG`
Response: -1.18

Prompt: What would you report for `TTTCTCCTTCACGTCGTCCAGG` ?
Response: -1.07

Prompt: What would you report for `TTGGTGATGAGCCCGCACGAGG` ?
Response: -1.78

Prompt: What would you report for `TACACTTGCCGAAGCACTCGTG` ?
Response: -0.466

Continuing:
Prompt: Enter reported sensor-assay potency score (higher = more potent) observed with SKI for `TCACTCGCTGACACTGCGGGGG`
Response: -0.224

###

# Assayed System: CRTAM
# Protocol Details: pooled miR-30 sensor sort-seq; sequence = guide strand
# Details: shRNA
Note to self: values exactly at -0.4 are Condition met. So sensor-assay potency score (higher = more potent) at or above -0.4 is Condition met, below is Condition not met.

Record excerpt, results attached:
Prompt: Check the entry `TTTTGCTTTCTGATAACTGAAG` : does sensor-assay potency score (higher = more potent) equal or exceed -0.4?
Response: Condition not met

Prompt: What would you report for `TAGTATTACATTTCTTCCCATC` ?
Response: Condition not met

Prompt: What would you report for `TTGATCTGTAACTTTCTAGTGT` ?
Response: Condition met

Continuing:
Prompt: Check the entry `TTTTCTTTCTTGCCAGTCCTAA` : does sensor-assay potency score (higher = more potent) equal or exceed -0.4?
Response: Condition met

Prompt: What would you report for `TTAGCTGCTCACACTGACCCTG` ?
Response: Condition met

###

# Assayed System: ST8SIA1
# Protocol Details: pooled miR-30 sensor sort-seq; sequence = guide strand
# Details: shRNA
Quantity: sensor-assay potency score (higher = more potent)

Prompt: Enter reported sensor-assay potency score (higher = more potent) observed with ST8SIA1 for `TTTGATTGGCACCAACATCTGA`
Response: -0.123

Prompt: What would you report for `TAAGTTGAATTGTCAATGGTGA` ?
Response: -0.263

Prompt: What would you report for `TAAGACGTTGTCATAGTAGTGG` ?
Response: 0.604

Continuing:
Prompt: Enter reported sensor-assay potency score (higher = more potent) observed with ST8SIA1 for `TGACAGTGTATAATAAACCCTC`
Response: -0.586

Prompt: What would you report for `TTTGCTTCATCTATTTGACGGC` ?
Response: 0.566

Prompt: What would you report for `TTGTCCACAAATGTCTTTCTGG` ?
Response: -0.546

Prompt: What would you report for `TTAGCTGTCACTAACTGACTTT` ?
Response: 0.0924

###

# Assayed System: PHF8
# Protocol Details: pooled miR-30 sensor sort-seq; sequence = guide strand
# Details: shRNA
Quantity: sensor-assay potency score (higher = more potent)
// response body must contain only the number

Reference set, count: 5
Prompt: Quick check: sensor-assay potency score (higher = more potent) of `TTTCACAAAATCACCAAGCTTC` ?
Response: 0.0269

Prompt: What would you report for `TTCCAAACTAATGACATTGAGG` ?
Response: -0.716

Prompt: What would you report for `TTGCTTTCTGGAAAGAGCCTGT` ?
Response: -0.163

Prompt: What would you report for `TTCAACACCAACACAACTGCCA` ?
Response: 0.225

Prompt: What would you report for `TTGCTATCTTGGTTCGCCGAGA` ?
Response: -0.723

We next turn to a different sequence, shown below.
Prompt: Quick check: sensor-assay potency score (higher = more potent) of `TCACACTCGATCATGAAGCGGG` ?
Response: 0.234

###

Reported sensor-assay potency score (higher = more potent) by item:
# Assayed System: TUBB2B
# Protocol Details: pooled miR-30 sensor sort-seq; sequence = guide strand
# Details: shRNA
// response body must contain only the number

Reference set, count: 4
Prompt: Quick check: sensor-assay potency score (higher = more potent) of `TCCATGGTAACTGCCAGTGGGG` ?
Response: -1.71

Prompt: What would you report for `TCGTTGTCAATGCAGTAGGTTT` ?
Response: -1.57

Prompt: What would you report for `AACATTGATTCTCTCCAGCTGC` ?
Response: -0.381

Prompt: What would you report for `ATGCTCATCACTGATGACCTCC` ?
Response: -0.227

Continuing:
Prompt: Quick check: sensor-assay potency score (higher = more potent) of `TAACCGAATCCATCGTGCCTGG` ?
Response: -0.853

Prompt: What would you report for `AACACGAAATTGTCTGGTCTGA` ?
Response: -0.953

###

Reported sensor-assay potency score (higher = more potent) by item:
# Assayed System: RECQL4
# Protocol Details: pooled miR-30 sensor sort-seq; sequence = guide strand
# Details: shRNA
// response body must contain only the number

Reference set, count: 3
Prompt: Enter reported sensor-assay potency score (higher = more potent) observed with RECQL4 for `AACAGCATCTGTGTCTTCCTCA`
Response: 0.181

Prompt: What would you report for `TTCTGCAGGACAGATTCCCGTT` ?
Response: -0.459

Prompt: What would you report for `TAGCACAGCAAAGTCTCGATGG` ?
Response: -0.495

We next turn to a different sequence, shown below.
Prompt: Enter reported sensor-assay potency score (higher = more potent) observed with RECQL4 for `TTATTCTGCATTTTGGAGCCTC`
Response: 0.116

###

# Assayed System: COMMD1
# Protocol Details: pooled miR-30 sensor sort-seq; sequence = guide strand
# Details: shRNA
Quantity: sensor-assay potency score (higher = more potent)

Reference set, count: 4
Prompt: Enter reported sensor-assay potency score (higher = more potent) observed with COMMD1 for `TTGAGCTGAGTGCCTTGACTGA`
Response: -0.799

Prompt: What would you report for `TTTTGTCTTGTGGCTCTTCCAG` ?
Response: -0.915

Prompt: What would you report for `TTTGGAAATGACAGCAGCTTGG` ?
Response: -0.686

Prompt: What would you report for `TATAATGGCAACAGGTGTGTGT` ?
Response: 0.267

Continuing:
Prompt: Enter reported sensor-assay potency score (higher = more potent) observed with COMMD1 for `TTTCAACAACTCCAACTCCTTC`
Response: -0.622

Prompt: What would you report for `TTTGTCTTGTGGCTCTTCCAGA` ?
Response: -0.37

Prompt: What would you report for `TTCTACCTCTGACAGCGTCTTC` ?
Response: -0.88

Prompt: What would you report for `TTCTTCTACCTCTGACAGCGTC` ?
Response: -0.845

###

# Assayed System: PIK3R4
# Protocol Details: pooled miR-30 sensor sort-seq; sequence = guide strand
# Details: shRNA
Reported sensor-assay potency score (higher = more potent) by item:

Prompt: Enter reported sensor-assay potency score (higher = more potent) observed with PIK3R4 for `TATCTGAAAAATAACTCTCTAC`
Response: -0.529

Prompt: What would you report for `TTACAGTAGACATCAGCTGTAC` ?
Response: 0.0221

Continuing:
Prompt: Enter reported sensor-assay potency score (higher = more potent) observed with PIK3R4 for `TTCAATTTTATTTAGCACTTGT`
Response: 0.585

Prompt: What would you report for `TAGCAAAGTAACAACTTTCTGC` ?
Response: 0.5

Prompt: What would you report for `TTTTGTAGCAGTCCTAACTGGC` ?
Response: -0.0245

Prompt: What would you report for `TTTTATTTAGCACTTGTTCAGG` ?
Response: -0.266

###

# Assayed System: CHMP2A
# Protocol Details: pooled miR-30 sensor sort-seq; sequence = guide strand
# Details: shRNA
Quantity: sensor-assay potency score (higher = more potent)
// response body must contain only the number

Reference set, count: 2
Prompt: Quick check: sensor-assay potency score (higher = more potent) of `TTCATGGCTTGTGCCATCGAGT` ?
Response: -1.33

Prompt: What would you report for `TTCATCTTCCTCATCACCCATG` ?
Response: -0.68

Continuing:
Prompt: Quick check: sensor-assay potency score (higher = more potent) of `TCTAGTTTCTGTCGCTCGCGGT` ?
Response: -0.825

Prompt: What would you report for `TGCAATGATTTTCTTCTCCTGG` ?
Response: -0.535

Prompt: What would you report for `TTGTTGGACTTGAGTGTCTGGA` ?
Response: -0.834

Prompt: What would you report for `AAACTTGCGCACATAGCGCCGG` ?
Response: -0.531

Prompt: What would you report for `TTCAGCTGTCTGTTCATGGTGC` ?
Response: 0.372

Prompt: What would you report for `TTGAGTGTCTGGATCTTGAGGG` ?
Response: 0.547
